Attribute: melting point
Structures can show the parent of a compound that is named as a salt.

{"molecule": "O=C(NCC1CCCCC1)c1c(Cl)ccc2nc(N3CCNCC3)ccc12 (as salt: hydrochloride)", "melting point": "305 to 306 °C"}
{"molecule": "O=C(O)CCCc1ccc2c(NC(=O)CC3CCCCC3)c(Cl)ccc2n1", "melting point": "216 to 220 °C"}
{"molecule": "O=C(CCC1CCCC1)Nc1cccc2ncccc12 [Example 21, N-5-Quinolinyl-cyclopentanepropanamide]", "melting point": "135 to 138 °C"}
{"molecule": "O=C(NCC1CCCCC1)c1c(Cl)ccc2nc(CCCCc3nnn[nH]3)ccc12", "melting point": "90 to 93 °C"}
{"molecule": "NCCCc1ccc2c(NC(=O)CC3CCCCC3)c(Cl)ccc2n1", "melting point": "121 to 130 °C"}
{"molecule": "O=C(CC1CCCCC1)Nc1c(Cl)ccc2nc(N3CCC[C@@H](O)C3)ccc12", "melting point": "209 to 214 °C"}
{"molecule": "O=C(CC1CCCCC1)Nc1c(Cl)ccc2nc(N3CCC[C@H](NCCO)C3)ccc12", "melting point": "182 to 183 °C"}
{"molecule": "O=C(NCC1CCCCC1)c1c(Cl)ccc2nc(N3CC(NCCO)C3)ccc12", "melting point": "150 to 151 °C"}

----------
Where a name gives a salt, the structure may show the parent alone.
measurement-type: melting point

{"compound": "O=C(CC1CCCCC1)Nc1c(Cl)ccc2nc(N3CCC(c4nsc(=O)[nH]4)CC3)ccc12 [Example 103]", "measurement-type": "melting point", "endpoint-result": "275 °C"}
{"compound": "O=C(CC1CCCCC1)Nc1c(Cl)ccc2nc(N3CC[C@H](NCCO)C3)ccc12 [Example 36]", "measurement-type": "melting point", "endpoint-result": "194 to 196 °C"}
{"compound": "O=C(O)CCCCc1ccc2c(NC(=O)CC3CCCCC3)c(Cl)ccc2n1 [Example 70]", "measurement-type": "melting point", "endpoint-result": "199 to 201 °C"}
{"compound": "N[C@H]1CCN(c2ccc3c(C(=O)NCC4CCCCC4)cccc3n2)C1 [Example 54]", "measurement-type": "melting point", "endpoint-result": "127 to 128 °C"}
{"compound": "O=C(O)CCCNc1ccc2c(NC(=O)CC3CCCCC3)c(Cl)ccc2n1 [Example 7]", "measurement-type": "melting point", "endpoint-result": "248 to 250 °C"}
{"compound": "O=C(O)CCNc1ccc2c(NC(=O)CC3CCCCC3)c(Cl)ccc2n1 [Example 41]", "measurement-type": "melting point", "endpoint-result": "222 to 224 °C (dec.)"}
{"compound": "O=C(CC1CCCCC1)Nc1c(Cl)ccc2nc(CCCCc3nnn[nH]3)ccc12 [Example 105]", "measurement-type": "melting point", "endpoint-result": "192 to 195 °C"}
{"compound": "O=C(CC1CCCCC1)Nc1c(Cl)ccc2nc(N3CCCC(NCCO)C3)ccc12 (stereo not shown) [Example 80]", "measurement-type": "melting point", "endpoint-result": "185 to 186 °C"}
{"compound": "CN[C@@H]1CCN(c2ccc3c(NC(=O)CC4CCCCC4)c(Cl)ccc3n2)C1 [Example 33]", "measurement-type": "melting point", "endpoint-result": "169 °C"}
{"compound": "N[C@H]1CCCN(c2ccc3c(NC(=O)CC4CCCCC4)c(Cl)ccc3n2)C1 [Example 60]", "measurement-type": "melting point", "endpoint-result": "173 to 176 °C"}
{"compound": "O=C(O)CC1CCN(c2ccc3c(C(=O)NCC4CCCCC4)c(Cl)ccc3n2)CC1 (as salt: trifluoroacetate)", "measurement-type": "melting point", "endpoint-result": "79 to 83 °C"}
{"compound": "O=C(CC1CCCCC1)Nc1c(Cl)ccc2nc(N3CC[C@H](OCCc4noc(=O)[nH]4)C3)ccc12 [Example 108]", "measurement-type": "melting point", "endpoint-result": "185 to 190 °C"}
{"compound": "CNCCCN(C)c1ccc2c(NC(=O)C3(C4CCCCC4)CC3)c(Cl)ccc2n1 (as salt: hydrochloride)", "measurement-type": "melting point", "endpoint-result": "215 to 218 °C"}
{"compound": "O=C(O)CN1CCN(c2ccc3c(C(=O)NCC4CCCCC4)c(Cl)ccc3n2)CC1 (as salt: acetate) [Example 73]", "measurement-type": "melting point", "endpoint-result": "185 to 190 °C"}
{"compound": "CNCCCN(C)c1ccc2c(NC(=O)CC3CCCCC3)c(Cl)ccc2n1 (as salt: hydrochloride) [Example 3, Dihydrochloride]", "measurement-type": "melting point", "endpoint-result": "231 to 233 °C"}
{"compound": "O=C(NCC1CCCCC1)c1c(Cl)ccc2nc(N3CCC[C@H]3C(=O)O)ccc12 (as salt: trifluoroacetate)", "measurement-type": "melting point", "endpoint-result": "168 to 170 °C"}
